B1: LCOR (parent)
chain: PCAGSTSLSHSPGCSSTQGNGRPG

# Variants of: B1
# assay.remarks: protein stability index of a GFP-peptide fusion (GPS, HEK-293T) (PSI 1-6); higher = more stable;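 also: lentivirally expressed fusions sorted by FACS into six bins by GFP to DsRed ratio, PSI derived from sequencing read proportions per bin multiplied by bin number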
# condition.context: c terminus: a fixed tail appended
Items are presented alongside their recorded protein stability index.

Consider the reported protein stability index for these variants:
changes | meas.value
C2A | 2.92
S11M | 3.28
P1M | 3.39

QUERY: Give a short answer stating reported protein stability index for `C2W` .
RESULT: 4.09

QUERY: Give a short answer stating reported protein stability index for `G19V` .
RESULT: 3.19

QUERY: Give a short answer stating reported protein stability index for `G13F` .
RESULT: 2.93
